TARGET: MAGI2_6, Q86UL8
Sequence (Q86UL8 1141-1229): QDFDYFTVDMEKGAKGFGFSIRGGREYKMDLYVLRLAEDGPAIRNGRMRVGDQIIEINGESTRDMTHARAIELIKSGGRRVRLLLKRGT
EXPERIMENT DESCRIPTION: holdup assay
Design: key: below the threshold = too weak to quantify, mostly under pKd 3.1 to 4
PROTOCOL CONDITIONS: plain residues with an end cap or a label only (N-terminal biotin on a linker: ttds)
Rule: pKd of 4 or more gives criterion met; anything lower gives criterion not met.

{"columns": ["BINDER", "CLASS"],
 "data": [
  ["KKYVDAETSL [SLC4A7, Q9Y6M7]", "criterion not met"],
  ["QRQARSETLV [HPV59-E6, Q81964]", "criterion not met"],
  ["RHTTSTETAV [HPV30-E6, P36809]", "criterion met"],
  ["SKPTRRETEV [HPV35-E6, P27228]", "criterion not met"],
  ["DKDPHSETAL [TMIGD1, Q6UXZ0]", "criterion not met"],
  ["SSLQSLETSV [ATP2B4, P23634]", "criterion met"],
  ["VDFPPKESSL [ACVR2A, P27037]", "criterion not met"],
  ["EVVHTPETSV [SLC16A3, O15427]", "criterion met"]
]}
